System: E. coli mL308 225
Experiment: In Vitro Anti-Bacterial Activity Assay (MIC), gram negative
Type: cell-based
Conditions: Escherichia coli, ML308225, 18 h, gram negative bacteria; read-out: Antibiotic Activity Gram − (MIC)
Parameter: MIC

The examples below pair each entry with its known result.
• CN(C)c1cc(CN(Cc2ccn[nH]2)Cc2ccn[nH]2)c(O)c2c1C[C@H]1C[C@H]3[C@H](N(C)C)C(O)=C(C(N)=O)C(=O)[C@@]3(O)C(O)=C1C2=O = > 4 mg/L
• CN(C)CC(=O)NCc1cc(N(C)C)c2c(c1O)C(=O)C1=C(O)[C@]3(O)C(=O)C(C(N)=O)=C(O)[C@@H](N(C)C)[C@@H]3C[C@@H]1C2 = > 4 mg/L
• CN(C)c1cc(C#CCNS(C)(=O)=O)c(O)c2c1C[C@H]1C[C@H]3[C@H](N(C)C)C(O)=C(C(N)=O)C(=O)[C@@]3(O)C(O)=C1C2=O = > 4 mg/L
• CCOC(=O)CNCc1ccc(-c2ccc(O)c3c2C[C@H]2C[C@H]4[C@H](N(C)C)C(O)=C(C(N)=O)C(=O)[C@@]4(O)C(O)=C2C3=O)c2ccccc12 = < 4 mg/L

I need MIC for every entry listed below, if you could help.
1. Cc1ccc(-c2ccc(O)c3c2C[C@H]2C[C@H]4[C@H](N(C)C)C(O)=C(C(N)=O)C(=O)[C@@]4(O)C(O)=C2C3=O)cc1N
2. Cc1ccnc(-c2ccc(O)c3c2C[C@H]2C[C@H]4[C@H](N(C)C)C(O)=C(C(N)=O)C(=O)[C@@]4(O)C(O)=C2C3=O)c1
3. CCCc1cc(N(C)C)c2c(c1O)C(=O)C1=C(O)[C@]3(O)C(=O)C(C(N)=O)=C(O)[C@@H](N(C)C)[C@@H]3C[C@@H]1C2

Response line:
1. < 4 mg/L
2. < 4 mg/L
3. > 4 mg/L

For every item below, please supply its MIC.
1. CN(C)[C@@H]1C(O)=C(C(N)=O)C(=O)[C@@]2(O)C(O)=C3C(=O)c4c(O)ccc(-c5cncc(Br)c5)c4C[C@H]3C[C@@H]12
2. COC(=O)c1ccc(O)c2c1C[C@H]1C[C@H]3[C@H](N(C)C)C(O)=C(C(N)=O)C(=O)[C@@]3(O)C(O)=C1C2=O
3. CN(C)[C@@H]1C(O)=C(C(N)=O)C(=O)[C@@]2(O)C(O)=C3C(=O)c4c(O)ccc(CNC(=O)C(C)(C)C)c4C[C@H]3C[C@@H]12

Response line:
1: < 4 mg/L; 2: < 4 mg/L; 3: > 4 mg/L

###

System: S. aureus RN450
Assay: In Vitro Anti-Bacterial Activity Assay (MIC), gram positive
Format: cell-based
Settings: Staphylococcus aureus, RN450, 18 h, gram positive bacteria; read-out: Antibiotic Activity Gram + (MIC)
Parameter: MIC

Worked cases, answers included:
- CN(C)c1cc(CNCC(=O)C(C)(C)C)c(O)c2c1C[C@H]1C[C@H]3[C@H](N(C)C)C(O)=C(C(N)=O)C(=O)[C@@]3(O)C(O)=C1C2=O: < 4 µg/mL
- CN(C)[C@@H]1C(O)=C(C(N)=O)C(=O)[C@@]2(O)C(O)=C3C(=O)c4c(O)ccc(-c5cc6ccccc6o5)c4C[C@H]3C[C@@H]12 [drawing 3387]: < 4 µg/mL

Attention now turns to another entry.
MIC recorded for this compound, CNCc1cc(CNCC(C)(C)C)c2c(c1O)C(=O)C1=C(O)[C@]3(O)C(=O)C(C(N)=O)=C(O)[C@@H](N(C)C)[C@@H]3C[C@@H]1C2 , is > 4 µg/mL
